B1: DCAF4 (parent)
chain: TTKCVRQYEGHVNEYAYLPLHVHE

Variants of: B1
Assay: protein stability index of a GFP-peptide fusion (GPS, HEK-293T) (PSI 1-6); higher = more stable;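 further: lentivirally expressed fusions sorted by FACS into six bins by GFP to DsRed ratio, PSI derived from sequencing read proportions per bin multiplied by bin number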
Details: c terminus: a fixed tail appended
// 0 strictly below 2 in protein stability index; 1 otherwise

# mutation spec, classification
records = [
    ("E24Y", 0),
    ("K3T", 1),
    ("E9A", 1),
    ("L18I", 1),
    ("Y8W", 1),
    ("Y15I", 1),
    ("H11E", 1),
    ("H23F", 0),
    ("E9R", 1),
    ("G10N", 1),
    ("P19A", 0),
]
